Taken from patent US11505573B2.

# Tested on: A. baumannii ATCC 17978
# Experiment: Antimicrobial susceptibility testing: 50% growth inhibitory concentration (IC50) determination in Iso-Sensitest broth
# Format: cell-based
# Test conditions: Acinetobacter baumannii; A. baumannii strain ATCC17978; Iso-Sensitest medium; OD 600 nm over 16 h; 35±2° C.; read-out: IC50 ATCC17978 (50% growth inhibition concentration)
Property label: IC50 (nM)

Example entries and their recorded answers appear below.
* CN1C(=O)[C@H](CCCN)NC(=O)[C@H](CCCN)NCc2cccnc2Sc2c(Cl)ccc(-c3ccc(-c4nnn[nH]4)cc3)c2CNC(=O)[C@@H]1Cc1c[nH]c2ccccc12 | 20
* CC(=O)NS(=O)(=O)c1ccc(-c2ccc(Cl)c3c2CNC(=O)[C@H](Cc2c[nH]c4ccccc24)N(C)C(=O)[C@H](CCCCN)NC(=O)[C@H](CCCN)NCc2cccnc2S3)cc1 | 20
* Cc1ccc(-c2ccc(-c3nnn[nH]3)cc2)c2c1Sc1ncccc1CN[C@@H](CCCN)C(=O)N[C@@H](CCCCN)C(=O)N(C)[C@@H](Cc1c[nH]c3ccccc13)C(=O)NC2 | 20
* CN1C(=O)[C@H](CCCCN)NC(=O)[C@H](CCCN)NCc2cccnc2Sc2c(Cl)ccc(-c3ccc(S(=O)(=O)O)cc3)c2CNC(=O)[C@@H]1Cc1c[nH]c2ccccc12 | 20

(P) CN1C(=O)[C@H](CCCCN)NC(=O)[C@H](CCN)NCc2cccnc2Sc2c(Cl)ccc(-c3ccc(S(=O)(=O)O)cc3)c2CNC(=O)[C@@H]1Cc1c[nH]c2ccccc12
(Q) CC(=O)NS(=O)(=O)c1ccc(-c2ccc(Cl)c3c2CNC(=O)[C@H](Cc2c[nH]c4ccccc24)N(C)C(=O)[C@H](CCCCNCC(F)F)NC(=O)[C@H](CCCO)NCc2cccnc2S3)cc1
Exercise: compare P and Q ; which one has the greater IC50? Write down the label of the entry you select.
Q

(I) CN1C(=O)[C@H](CCCCN)NC(=O)[C@H](CCCN)NCc2nccnc2Sc2c(Cl)ccc(-c3ccc(S(=O)(=O)O)cc3)c2CNC(=O)[C@@H]1Cc1c[nH]c2ccccc12
(II) CN1C(=O)[C@H](CCCCN)NC(=O)[C@H](CCCN)NCc2cccnc2Sc2c(Cl)ccc(-c3cccc(-c4nnn[nH]4)c3)c2CNC(=O)[C@@H]1Cc1c[nH]c2ccccc12
Pick the one with the larger IC50: I vs II Write down the label of the entry you select.
II

(a) CN1C(=O)[C@H](CCCCN)NC(=O)[C@H](CCCN)NCc2cccnc2Sc2c(Cl)ccc(-c3cnc(=O)[nH]c3)c2CNC(=O)[C@@H]1Cc1c[nH]c2ccccc12
(b) CN1C(=O)[C@H](CCCN)NC(=O)[C@H](CCCN)NCc2cccnc2Sc2c(Cl)ccc(-c3cnc(=O)[nH]c3)c2CNC(=O)[C@@H]1Cc1c[nH]c2ccccc12
Which record would sort first by descending IC50, a or b ? Returns: label corresponding to the selected item.
b
(b: 80 nM, a: 20 nM)
